Tested on: SN12C renal
PROCEDURE DETAILS: NCI-60 one-dose screen, 48 h (100 = growth as untreated, 0 = no growth, -100 = all killed)
EXPERIMENTAL CONDITIONS: 10 µM
Description: Growth inhibition of the SN12C human tumor cell line is measured as a screen for anti-cancer activity. Cells are grown in 96 well plates and exposed to the test compound for 48 hours. Compounds are tested at a single concentration, which is 10^-5 M for most compounds. The reported endpoint is percent growth (GI% or GIPRCNT), where numbers from 0 - 100% represent growth inhibition, and numbers from -100% - 0 represent cell death. For example, a value of 40 represents 60% growth inhibition. […]
About 83,000 compounds went through this panel and 20% of them were active in at least one assay; those are over-represented in the sample as a whole.
QUANTITY: growth (%)

{"columns": ["COMPOUND", "RESULT"],
 "data": [
  ["Cc1cccc2c(NCCN(C)C)c3cccc(C(=O)NCCN(C)C)c3nc12", 15.9],
  ["COc1ccc(C(=O)/C=C/c2cc(-c3cc(OC)c(OC)c(OC)c3)n[nH]2)cc1", 25.1],
  ["CN1CCC(CNc2cc(C3(C(=O)Nc4cc(C(=O)Nc5ccc(Cl)c(C(F)(F)F)c5)ccc4F)CC3)ncn2)CC1", 78.8],
  ["COc1cc(Cl)cc(-c2nn(-c3cccc(NC(=O)Nc4ccc(Cl)c(C(F)(F)F)c4)c3)cc2-c2ccncc2)c1", 13.8],
  ["CCN(CC)CCNc1ccc(CO)c2oc3cc(Cl)ccc3c(=O)c12", 76.3],
  ["CN(C)c1ccc(Cc2ccc(N(C)C)cc2Cl)c(Cl)c1", 99.2],
  ["Nc1nc(N)c2c(ccc3nccc32)[nH]1", 94],
  ["CCCCOc1ccc(NC(=O)Nc2nnc(C)s2)cc1", 93.3],
  ["O=C(Nc1cccc(-n2cc(-c3ccncc3)c(-c3cc(O)cc(Cl)c3)n2)c1)c1cc(C(F)(F)F)cc(C(F)(F)F)c1", 50.3],
  ["COc1cc2cc3c(nc2cc1OC)CCN3Cc1ccc(NC(=O)Nc2cc(C(F)(F)F)cc(C(F)(F)F)c2)cc1", 74.3],
  ["CN(C)CCCn1c(=O)c2ccccc2c2cnc3[nH]ccc3c21", 10.2],
  ["O=C(Nc1ccc(Cl)c([N+](=O)[O-])c1)Nc1nc2ccccc2s1", 65.1],
  ["O=c1[nH]c(-c2ccc(Cl)cc2)nc2sc3c(c12)CCCC3", 52.5],
  ["COc1ccc(CN2CCC(N3CCCC3=O)c3cc(Cl)ccc32)cc1 (stereo unspecified)", 99.5],
  ["Nc1ccc2cc(S(=O)(=O)O)cc(O)c2c1N=Nc1ccc(F)cc1", 112],
  ["COc1ccc2c(c1)N(CCO)C1=C(C(=O)OC1)C2c1cc(OC)c(OC)c(OC)c1 (stereo unspecified)", 26],
  ["Cc1cccc(C)c1NC(=O)c1sc2nc3c(cc2c1N)C(=O)CCC3", 90.1],
  ["Nc1ccc2c(c1)Cc1cc(N)c(Br)cc1-2", 113],
  ["Clc1cccc(-c2nc(-c3cccs3)no2)c1", 97.1],
  ["Nc1c(C(=O)Nc2cccc(F)c2)sc2nc3c(cc12)C(=O)CCC3", 37.4],
  ["Cc1cccc2c1O/C(=C\\c1ccc([N+](=O)[O-])o1)C2=O", -17.5]
]}
